Measured growth of individual entries
Tested on: NCI-H226 lung
assay overview: NCI-60 one-dose screen, 48 h (100 = growth as untreated, 0 = no growth, -100 = all killed)
condition label: 10 µM
Compounds without any hit were thinned out: in the full panel of roughly 83,000, 20% have a hit.
Expressed in %, but write only the number.

Sample answers from the record:
{"compound": "COc1cccc(-c2nn(-c3ccccc3)cc2-c2ccnc(NCCCNC(=O)Nc3ccc(F)cc3)c2)c1", "growth [%]": 16.4}
{"compound": "C=C1CCC2C3(C)COC(c4c(F)cccc4F)OC3CCC2(C)C1CC(O)C1=CCOC1=O (stereo unspecified)", "growth [%]": 79.3}
{"compound": "CCOC(=O)C1=C(N)N(c2ccc(Cl)cc2)C2=C(C(=O)CC(C)(C)C2)C1c1ccc(N2CCOCC2)cc1 (stereo unspecified)", "growth [%]": 93.6}
{"compound": "O=C1N/C(=N\\c2nccs2)S/C1=C\\c1cccs1", "growth [%]": 19.9}
{"compound": "O=c1[nH]c2ccccc2cc1CSc1ccc(Nc2nccc(-c3ccc4ccccc4c3)n2)cc1", "growth [%]": 19}
{"compound": "O=C1CCC(N2Cc3cc(CC(=O)Nc4ccc(N5CCCCC5)cc4)ccc3C2=O)C(=O)N1 (stereo unspecified)", "growth [%]": 16.3}
{"compound": "COc1ccc2nc(Cl)c(-c3cc(-c4ccccc4)nc(=O)[nH]3)cc2c1", "growth [%]": 60.8}
{"compound": "CCN1CCN(Cc2ccc(C(=O)Nc3cccc(-c4cn(-c5ccc6oc(=O)ccc6c5)nn4)c3)cc2C(F)(F)F)CC1", "growth [%]": -82.1}

Ask: Quick one: growth for "CC1(C)CC[C@]2(C(=O)N3CCOCC3)CC[C@]3(C)C(=CC[C@@H]4[C@@]5(C)CC[C@H](NCO)C(C)(C)[C@@H]5CC[C@]43C)[C@H]2C1" ?
Reply: -88.3

Ask: Quick one: growth for "COc1ccc(-c2cc(-c3cc(C(=O)c4ccccc4)n4ccc(C)cc34)nc(N)c2C#N)cc1" ?
Reply: 36.4

Ask: Quick one: growth for "N#Cc1c(NC(=O)c2cccc(C(F)(F)F)c2)sc2c1CCC(O)=C2" ?
Reply: 54.7

Ask: Quick one: growth for "Nc1nnc(-c2c[nH]c3ccc(F)cc23)c(-c2c[nH]c3ncccc23)n1" ?
Reply: 57.9

Ask: Quick one: growth for "Cc1ccc(C(=O)N/C(=C2/OCCN2C)[P+](c2ccccc2)(c2ccccc2)c2ccccc2)cc1" ?
Reply: 92.9

Ask: Quick one: growth for "CC(=O)Nc1nc(-c2ccc(N3CCN(C)CC3)c(NS(=O)(=O)c3cccc4c(N(C)C)cccc34)c2)cs1" ?
Reply: 75.5

Ask: Quick one: growth for "CC(C)Sc1nc(NC2CC2)c(C#N)c(-c2ccccc2)n1" ?
Reply: 22.4

====

Tested on: HCT-15 colon
assay overview: NCI-60 one-dose screen, 48 h
condition label: 10 µM
The panel holds about 83,000 compounds, 20% with a hit somewhere; the sample as a whole holds those more often. Activity calls are given as the source filed them. The calls were made as follows: active = growth percent below 10; inactive = the rest.
Permitted responses: true (1) for active, false (0) for inactive

Some solved entries appear below for comparison.
{"compound": "O=C(Nc1cc(Cl)cc(Cl)c1)Nc1cc(Cl)cc(Cl)c1", "experimental system": "HCT-15 colon", "assigned label": "true (1)"}
{"compound": "O=C(c1ccc(Cl)cc1)C1[C@H](c2ccc(Br)cc2)[C@@H](c2ccccc2)NC12C(=O)Nc1ccc(Cl)cc12 (stereo partly drawn)", "experimental system": "HCT-15 colon", "assigned label": "true (1)"}
{"compound": "O=C1Nc2ccc(Cl)cc2/C1=C/c1ccc(OCc2ccc(Br)cc2F)cc1", "experimental system": "HCT-15 colon", "assigned label": "false (0)"}
{"compound": "CN(C)c1ccc(/C=C/c2nc3ccccc3c(=O)n2CC(=O)Nc2ccc(Cl)cc2)cc1", "experimental system": "HCT-15 colon", "assigned label": "false (0)"}
{"compound": "Cc1noc2c(Cc3ccccc3)nn(CC(=O)N/N=C/c3ccc(Br)cc3)c(=O)c12", "experimental system": "HCT-15 colon", "assigned label": "false (0)"}

Ask: I would be grateful if you could indicate the recorded call for C=C[C@H]1[C@H](O[C@@H]2OC(CO)[C@@H](O)[C@H](O)C2OC(=O)c2c(O)cc(O)cc2-c2cccc(O)c2)OC=C2C(=O)OCC[C@H]21 (stereo partly drawn) .
Reply: false (0)

Ask: I would be grateful if you could indicate the recorded call for "Cc1ccc(NC(=O)c2ccc(-n3c(=O)[nH]c4ccccc4c3=O)cc2)cc1" .
Reply: false (0)

Ask: I would be grateful if you could indicate the recorded call for "Cc1ccc(/C(CSc2nnc(-c3c[nH]c4ccccc34)n2-c2ccccc2)=N/O)cc1" .
Reply: true (1)
